Provenance of the data: patent US5538960A

The following molecules are shown together with reported pIC50 values.
# Target Of Assay: Na^+,K+ -ATPase (Canis lupus familiaris)
# Construct: Na^+,K+ -ATPase receptor purified according to Jorghensen; from tissue
# Assay: displacement of the specific ^3 H-ouabain binding from the Na^+,K+ -ATPase receptor
pIC50: −log10 of the molar value.

- Entry Smiles: "C[C@]12CC[C@H](O)C[C@H]1CC[C@@H]1[C@@H]2CC[C@]2(C)[C@@](O)(/C=N/NC3=NCCN3)CC[C@]12O"
  pIC50: 5.40
- Entry Smiles: "C/C(=N\\N=C(N)N)[C@H]1CC[C@]2(O)[C@@H]3CC[C@@H]4C[C@@H](O)CC[C@]4(C)[C@H]3CC[C@]12C"
  pIC50: 6.60
- Entry Smiles: "C[C@]12CC[C@H](O)C[C@H]1CC[C@@H]1[C@@H]2CC[C@]2(C)[C@@H](/C=N/NC3=NCCCN3)CC[C@]12O"
  pIC50: 6.60
- Entry Smiles: "C[C@]12CC[C@H](OCCCN)C[C@H]1CC[C@@H]1[C@@H]2CC[C@]2(C)[C@@H](/C=N/NC(=N)N)CC[C@]12O"
  pIC50: 7.40
- Entry Smiles: "C[C@]12CC[C@H](O)C[C@H]1CC[C@@H]1[C@@H]2CC[C@]2(C)[C@@H](/C=N/NC(=N)NC(=N)N)CC[C@]12O"
  pIC50: 6.70
- Entry Smiles: "CN1CCN=C1N/N=C/[C@H]1CC[C@]2(O)[C@@H]3CC[C@@H]4C[C@@H](O)CC[C@]4(C)[C@H]3CC[C@]12C"
  pIC50: 6.00
- Entry Smiles: "C[C@]12CCC(=NNC(=N)N)C[C@H]1CC[C@@H]1[C@@H]2CC[C@]2(C)[C@@H](/C=N/NC(=N)N)CC[C@]12O"
  pIC50: 6.90
- Entry Smiles: "CSC(=N)N/N=C/[C@H]1CC[C@]2(O)[C@@H]3CC[C@@H]4C[C@@H](O)CC[C@]4(C)[C@H]3CC[C@]12C"
  pIC50: 5.70
- Entry Smiles: "C[C@]12CC[C@H](OCCCN)C[C@H]1CC[C@@H]1[C@@H]2CC[C@]2(C)[C@@H](/C=N/NC(N)=O)CC[C@]12O"
  pIC50: 5.90
- Entry Smiles: "C[C@]12CC[C@H](OCCN3CCCC3)C[C@H]1CC[C@@H]1[C@@H]2CC[C@]2(C)[C@@H](/C=N/NC(N)=O)CC[C@]12O"
  pIC50: 5.80
- Entry Smiles: "C[C@]12CC[C@H](OCCCN)C[C@H]1CC[C@@H]1[C@@H]2CC[C@]2(C)[C@@H](/C=N/NC3=NCCN3)CC[C@]12O"
  pIC50: 7.00
- Entry Smiles: "C[C@]12CC[C@H](O)C[C@H]1CC[C@@H]1[C@@H]2CC[C@]2(C)[C@@H](/C=N/NC3=NCCN3)CC[C@]12O"
  pIC50: 6.70
